Target: Dual specificity protein kinase CLK1 (Homo sapiens, UniProt P49759)
Sequence (P49759 whole entry): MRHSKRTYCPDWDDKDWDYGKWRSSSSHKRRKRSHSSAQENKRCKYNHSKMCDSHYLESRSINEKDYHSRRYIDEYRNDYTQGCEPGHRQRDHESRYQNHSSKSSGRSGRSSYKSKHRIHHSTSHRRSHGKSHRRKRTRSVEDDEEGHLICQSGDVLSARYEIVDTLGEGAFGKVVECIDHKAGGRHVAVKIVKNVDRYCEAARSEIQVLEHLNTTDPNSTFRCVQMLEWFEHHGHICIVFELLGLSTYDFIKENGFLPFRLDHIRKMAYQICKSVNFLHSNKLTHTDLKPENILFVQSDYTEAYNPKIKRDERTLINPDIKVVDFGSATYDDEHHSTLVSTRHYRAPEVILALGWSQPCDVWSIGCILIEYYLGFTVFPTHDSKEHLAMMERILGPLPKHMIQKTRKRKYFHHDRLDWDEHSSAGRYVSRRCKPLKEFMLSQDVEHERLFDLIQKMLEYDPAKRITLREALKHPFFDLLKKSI
experimental endpoint: IC50 (µM)
Kindly answer with a numeric value in µM, unit omitted.

record smiles	measurement target	result units	numeric result
O=C(CS(=O)(=O)c1ccc(Cl)cc1)N/N=C/c1cc(C(=O)O)c(Nc2ccc(I)cc2F)c(F)c1F	Dual specificity protein kinase CLK1 (Homo sapiens, UniProt P49759)	µM	3

Shifting focus to the molecule that follows.
*Q* Give measured IC50 for O=C(N/N=C/c1cc(C(=O)O)c(Nc2ccc(I)cc2F)c(F)c1F)c1ccc(CO)o1 (Dual specificity protein kinase CLK1 (Homo sapiens, UniProt P49759)).
*A* 15

###

Assay: Binding affinity to p38 at 10 uM
Here the recorded inhibition is given for each entry.
Kindly answer with a numeric value in %, unit omitted.

record smiles	result units	numeric result
O=C(O)c1ccc(CO/N=C/c2cc(C(=O)NOCCO)c(Nc3ccc(I)cc3F)c(F)c2F)o1	%	19
O=C(O)CCCO/N=C/c1cc(C(=O)NOCCO)c(Nc2ccc(I)cc2F)c(F)c1F	%	4
O=C(NOCCO)c1cc(/C=N/OCCO)c(F)c(F)c1Nc1ccc(I)cc1F	%	1
O=C(NOCCO)c1ccc(F)c(F)c1Nc1ccc(I)cc1F	%	5
O=C(NOCCO)c1cc(COCCO)c(F)c(F)c1Nc1ccc(I)cc1F	%	5

Shifting focus to the molecule that follows.
*Q* Item COCCCNC(=O)N/N=C/c1cc(C(=O)NOCCO)c(Nc2ccc(I)cc2F)c(F)c1F : provide inhibition
*A* 31

###

Here the recorded inhibition is given for each entry.
Molecular target: MAP kinase-activated protein kinase 2 (Homo sapiens)
Assay: Binding affinity to MK2 at 10 uM
# answer = value followed by unit

record smiles	inhibition
O=C(O)CCCO/N=C/c1cc(C(=O)NOCCO)c(Nc2ccc(I)cc2F)c(F)c1F	18%
O=C(NOCCO)c1cc(COCCO)c(F)c(F)c1Nc1ccc(I)cc1F	5%
O=C(O)c1ccc(CO/N=C/c2cc(C(=O)NOCCO)c(Nc3ccc(I)cc3F)c(F)c2F)o1	28%
O=C(NOCCO)c1cc(/C=N/OCCO)c(F)c(F)c1Nc1ccc(I)cc1F	2%

*Q* Give measured inhibition for COCCCNC(=O)N/N=C/c1cc(C(=O)NOCCO)c(Nc2ccc(I)cc2F)c(F)c1F (MAP kinase-activated protein kinase 2 (Homo sapiens)).
*A* 1%

*Q* Give measured inhibition for O=C(NOCCO)c1ccc(F)c(F)c1Nc1ccc(I)cc1F (MAP kinase-activated protein kinase 2 (Homo sapiens)).
*A* 9%

###

Target: Serine/threonine-protein kinase Sgk1 (Homo sapiens) (UniProt O00141)
Sequence (O00141 whole entry): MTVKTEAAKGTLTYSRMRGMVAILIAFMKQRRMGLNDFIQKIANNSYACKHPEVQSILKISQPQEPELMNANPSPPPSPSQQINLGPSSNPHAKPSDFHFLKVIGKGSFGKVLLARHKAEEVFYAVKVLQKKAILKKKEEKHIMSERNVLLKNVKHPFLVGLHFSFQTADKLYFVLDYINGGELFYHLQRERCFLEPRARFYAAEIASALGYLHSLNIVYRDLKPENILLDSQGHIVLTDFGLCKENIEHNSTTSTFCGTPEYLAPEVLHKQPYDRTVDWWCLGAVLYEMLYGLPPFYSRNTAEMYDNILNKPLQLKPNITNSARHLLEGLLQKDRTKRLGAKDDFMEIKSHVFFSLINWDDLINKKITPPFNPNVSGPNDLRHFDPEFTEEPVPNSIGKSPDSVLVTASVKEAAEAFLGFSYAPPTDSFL
Test: Binding affinity to SGK at 10 uM
experimental endpoint: inhibition (%)
Kindly answer with a numeric value in %, unit omitted.

Example cases with answers are listed next.
record smiles	inhibition [%]
O=C(NOCCO)c1ccc(F)c(F)c1Nc1ccc(I)cc1F	0
O=C(NOCCO)c1cc(/C=N/OCCO)c(F)c(F)c1Nc1ccc(I)cc1F	0

*Q* Item O=C(O)CCCO/N=C/c1cc(C(=O)NOCCO)c(Nc2ccc(I)cc2F)c(F)c1F : provide inhibition
*A* 39

*Q* Item O=C(NOCCO)c1cc(COCCO)c(F)c(F)c1Nc1ccc(I)cc1F : provide inhibition
*A* 0

*Q* Item COCCCNC(=O)N/N=C/c1cc(C(=O)NOCCO)c(Nc2ccc(I)cc2F)c(F)c1F : provide inhibition
*A* 0

*Q* Item O=C(O)c1ccc(CO/N=C/c2cc(C(=O)NOCCO)c(Nc3ccc(I)cc3F)c(F)c2F)o1 : provide inhibition
*A* 60

Where do these numbers come from? They come from ChEMBL document CHEMBL1139272.
